Reference for the values: ChEMBL document CHEMBL4014266

# procedureSummary: Cytotoxicity against rat C6 cells assessed as cell viability at 20 uM after 24 hrs by MTT assay relative to control
# Type: cell-based
# conditionDescription: read-out: Activity
viability at 24 h, 20 µM values for the molecules below.

- substanceSmiles: "O=c1c(O[C@@H]2O[C@H](CO)[C@@H](O)[C@H](O)[C@H]2O)c(-c2ccc(O)cc2)oc2cc(O)cc(O)c12"
  unit: "%"
  viability at 24 h, 20 µM: 115
- substanceSmiles: "CCCCC/C=C/C(=O)CCc1ccc(O)c(OC)c1"
  unit: "%"
  viability at 24 h, 20 µM: 104
- substanceSmiles: "C[C@@H]1O[C@@H](OC[C@H]2O[C@@H](Oc3c(-c4ccc(O)cc4)oc4c([C@@]56O[C@]5(c5ccc(O)cc5)Oc5cc(O)cc(O)c5C6=O)c(O)cc(O)c4c3=O)[C@H](O)[C@@H](O)[C@@H]2O)[C@H](O)[C@H](O)[C@H]1O"
  unit: "%"
  viability at 24 h, 20 µM: 102
- substanceSmiles: "C[C@@H]1O[C@@H](OC[C@H]2O[C@@H](Oc3c(-c4ccc(O)c(O)c4)oc4cc(O)cc(O)c4c3=O)[C@H](O)[C@@H](O)[C@@H]2O)[C@H](O)[C@H](O)[C@H]1O"
  unit: "%"
  viability at 24 h, 20 µM: 113
- substanceSmiles: "O=c1c(O[C@@H]2O[C@H](CO)[C@@H](O)[C@H](O)[C@H]2O)c(-c2ccc(O)c(O)c2)oc2cc(O)cc(O)c12"
  unit: "%"
  viability at 24 h, 20 µM: 107
- substanceSmiles: "O=c1c(O)c(-c2ccc(O)c(O)c2)oc2cc(O)cc(O)c12"
  unit: "%"
  viability at 24 h, 20 µM: 103
- substanceSmiles: "O=C1c2c(O)cc(O)cc2O[C@H](c2cc(O)c(O)c(O)c2)[C@H]1O"
  unit: "%"
  viability at 24 h, 20 µM: 110

====

# procedureSummary: Cytotoxicity against mouse BV2 cells assessed as cell viability at 20 uM after 24 hrs by MTT assay relative to control
# Type: cell-based, BV-2
# conditionDescription: read-out: Activity

- compound: "O=c1c(O[C@@H]2O[C@H](CO)[C@@H](O)[C@@H](O)[C@H]2O)c(-c2ccc(O)cc2)oc2cc(O)cc(O)c12"
  viability at 24 h, 20 µM (%): 97.5
- compound: "O=c1c(O[C@@H]2O[C@H](CO)[C@@H](O)[C@H](O)[C@H]2O)c(-c2ccc(O)c(O)c2)oc2cc(O)cc(O)c12"
  viability at 24 h, 20 µM (%): 95.6
- compound: "CNC(=N)NCCC[C@H](N)C(=O)O"
  viability at 24 h, 20 µM (%): 120
- compound: "O=c1c(O)c(-c2ccc(O)c(O)c2)oc2cc(O)cc(O)c12"
  viability at 24 h, 20 µM (%): 101
- compound: "C[C@@H]1O[C@@H](OC[C@H]2O[C@@H](Oc3c(-c4ccc(O)cc4)oc4c([C@@]56O[C@]5(c5ccc(O)cc5)Oc5cc(O)cc(O)c5C6=O)c(O)cc(O)c4c3=O)[C@H](O)[C@@H](O)[C@@H]2O)[C@H](O)[C@H](O)[C@H]1O"
  viability at 24 h, 20 µM (%): 99.9
- compound: "C[C@@H]1O[C@@H](OC[C@H]2O[C@@H](Oc3c(-c4ccc(O)cc4)oc4cc(O)cc(O)c4c3=O)[C@H](O)[C@@H](O)[C@@H]2O)[C@H](O)[C@H](O)[C@H]1O [NICOTIFLOROSIDE]"
  viability at 24 h, 20 µM (%): 97.9
- compound: "C[C@@H]1O[C@@H](OC[C@H]2O[C@@H](Oc3c(-c4ccc(O)cc4)oc4c([C@]56O[C@@]5(c5ccc(O)cc5)Oc5cc(O)cc(O)c5C6=O)c(O)cc(O)c4c3=O)[C@H](O)[C@@H](O)[C@@H]2O)[C@H](O)[C@H](O)[C@H]1O"
  viability at 24 h, 20 µM (%): 100
- compound: "O=C1c2c(O)cc(O)cc2O[C@]2(c3ccc(O)cc3)O[C@]12c1c(O)cc(O)c2c(=O)c(O[C@@H]3O[C@H](CO)[C@@H](O)[C@H](O)[C@H]3O)c(-c3ccc(O)cc3)oc12"
  viability at 24 h, 20 µM (%): 104
- compound: "O=C1c2c(O)cc(O)cc2O[C@H](c2cc(O)c(O)c(O)c2)[C@H]1O"
  viability at 24 h, 20 µM (%): 97
- compound: "O=c1c(O[C@@H]2O[C@H](CO)[C@@H](O)[C@H](O)[C@H]2O)c(-c2ccc(O)cc2)oc2cc(O)cc(O)c12"
  viability at 24 h, 20 µM (%): 97.5
- compound: "O=c1c(O)c(-c2ccc(O)cc2)oc2cc(O)cc(O)c12"
  viability at 24 h, 20 µM (%): 119
- compound: "C[C@@H]1O[C@@H](O[C@H]2[C@H](Oc3c(-c4ccc(O)cc4)oc4cc(O)cc(O)c4c3=O)O[C@H](CO)[C@@H](O)[C@@H]2O)[C@H](O)[C@H](O)[C@H]1O"
  viability at 24 h, 20 µM (%): 103
- compound: "O=C1c2c(O)cc(O)cc2O[C@@]2(c3ccc(O)cc3)O[C@@]12c1c(O)cc(O)c2c(=O)c(O[C@@H]3O[C@H](CO)[C@@H](O)[C@H](O)[C@H]3O)c(-c3ccc(O)cc3)oc12"
  viability at 24 h, 20 µM (%): 110
- compound: "C[C@@H]1O[C@@H](OC[C@H]2O[C@@H](Oc3c(-c4ccc(O)c(O)c4)oc4cc(O)cc(O)c4c3=O)[C@H](O)[C@@H](O)[C@@H]2O)[C@H](O)[C@H](O)[C@H]1O"
  viability at 24 h, 20 µM (%): 99.2

====

# procedureSummary: Cytotoxicity against rat C6 cells assessed as cell viability at 20 uM after 24 hrs by MTT assay relative to control
# Type: cell-based
# conditionDescription: read-out: Activity
observedProperty: viability at 24 h, 20 µM

- molecule: "C[C@@H]1O[C@@H](OC[C@H]2O[C@@H](Oc3c(-c4ccc(O)cc4)oc4c([C@]56O[C@@]5(c5ccc(O)cc5)Oc5cc(O)cc(O)c5C6=O)c(O)cc(O)c4c3=O)[C@H](O)[C@@H](O)[C@@H]2O)[C@H](O)[C@H](O)[C@H]1O"
  testResult: "109%"
- molecule: "O=c1c(O[C@@H]2O[C@H](CO)[C@@H](O)[C@@H](O)[C@H]2O)c(-c2ccc(O)cc2)oc2cc(O)cc(O)c12"
  testResult: "105%"
- molecule: "O=c1c(O)c(-c2ccc(O)cc2)oc2cc(O)cc(O)c12"
  testResult: "97.2%"
- molecule: "O=C1c2c(O)cc(O)cc2O[C@]2(c3ccc(O)cc3)O[C@]12c1c(O)cc(O)c2c(=O)c(O[C@@H]3O[C@H](CO)[C@@H](O)[C@H](O)[C@H]3O)c(-c3ccc(O)cc3)oc12"
  testResult: "107%"
- molecule: "C[C@@H]1O[C@@H](O[C@H]2[C@H](Oc3c(-c4ccc(O)cc4)oc4cc(O)cc(O)c4c3=O)O[C@H](CO)[C@@H](O)[C@@H]2O)[C@H](O)[C@H](O)[C@H]1O"
  testResult: "102%"
- molecule: "C[C@@H]1O[C@@H](OC[C@H]2O[C@@H](Oc3c(-c4ccc(O)cc4)oc4cc(O)cc(O)c4c3=O)[C@H](O)[C@@H](O)[C@@H]2O)[C@H](O)[C@H](O)[C@H]1O [NICOTIFLOROSIDE]"
  testResult: "99.6%"
- molecule: "O=C1c2c(O)cc(O)cc2O[C@@]2(c3ccc(O)cc3)O[C@@]12c1c(O)cc(O)c2c(=O)c(O[C@@H]3O[C@H](CO)[C@@H](O)[C@H](O)[C@H]3O)c(-c3ccc(O)cc3)oc12"
  testResult: "113%"
